Test system: CCRIS mutagenicity, Ames/micronucleus/aberration tests
Test: CCRIS mutagenicity studies
Settings: Test System: AMES SALMONELLA TYPHIMURIUM; Strain/Indicator: TA104; Metabolic Activation: RAT, LIVER, S-9, PHENOBARBITAL AND 5,6-BENZOFLAVONE; Method: PREINCUBATION
Text: The CCRIS database contains chemical records with carcinogenicity, mutagenicity, tumor promotion, and tumor inhibition test results. It was developed by the National Cancer Institute (NCI). Data are derived from studies cited in primary journals, current awareness tools, NCI reports, and other sources. Test results have been reviewed by experts in carcinogenesis and mutagenesis. CCRIS provides historical information from the years 1985 - 2011. It is no longer updated. […]
Active and inactive are the calls of the source. No rule for the calls is given here.
Form entry, call: pick from t = active, f = inactive

Past entries and their recorded results:
[[record]]
smiles_repr = "NC1=CC(=O)C(=O)c2ccccc21"
target = "CCRIS mutagenicity, Ames/micronucleus/aberration tests"
label_value = "t"

[[record]]
smiles_repr = "COC1=C(OC)C(=O)C(C)=CC1=O"
target = "CCRIS mutagenicity, Ames/micronucleus/aberration tests"
label_value = "f"

[[record]]
smiles_repr = "O=C(O)C(=O)C(=O)O"
target = "CCRIS mutagenicity, Ames/micronucleus/aberration tests"
label_value = "f"


Consider the record given below.
In: Recorded call for CC(C)=CCC1=C(O)c2ccccc2C(=O)C1=O ?
Out: f

---

Tested on: CCRIS mutagenicity, Ames/micronucleus/aberration tests
Assay: CCRIS mutagenicity studies
Details: Test System: AMES SALMONELLA TYPHIMURIUM; Strain/Indicator: TA100; Metabolic Activation: HAMSTER, LIVER, S-9, AROCLOR 1254 (10%); Method: STANDARD PLATE
Activity calls are given as the source filed them. The rule behind the calls is not given here.
Pick one: active, inactive

Reference set (3 entries):
[[record]]
compound = "CC1CCC(C(C)C)C(OC(=O)c2ccccc2N)C1 (centres undefined)"
label_value = "inactive"

[[record]]
compound = "O=NN1CCCCC1"
label_value = "active"

[[record]]
compound = "CCC1CCC(CCC(=O)[O-])C1.CCC1CCC(CCC(=O)[O-])CC1.[Cu+2] (centres undefined)"
label_value = "inactive"


In: Please state the recorded outcome for this compound: Nc1nc2c(ncn2[C@@H]2C=C[C@H](CO)C2)c(=O)[nH]1
Out: inactive

---

Test system: CCRIS mutagenicity, Ames/micronucleus/aberration tests
Assay: CCRIS mutagenicity studies
Details: Test System: AMES SALMONELLA TYPHIMURIUM; Strain/Indicator: TA98(NR); Metabolic Activation: NONE; Method: STANDARD PLATE
The source made the active and inactive calls. How the calls were made is not given here.
Outcomes you can answer with include only these: active, inactive

[[record]]
smiles_repr = "O=[N+]([O-])c1ccc2c3c(cccc13)-c1cc(O)ccc1-2"
label_value = "active"

[[record]]
smiles_repr = "CC(=O)Nc1ccc2ccc3cccc4ccc1c2c34"
label_value = "inactive"

[[record]]
smiles_repr = "COc1cccc2c1ccc1c(C(=O)O)cc3c(c12)OCO3"
label_value = "active"

[[record]]
smiles_repr = "O=[N+]([O-])c1ccc2ccc3ccc([N+](=O)[O-])cc3c2c1"
label_value = "active"

[[record]]
smiles_repr = "O=[N+]([O-])c1ccc2ccc3c([N+](=O)[O-])cccc3c2c1"
label_value = "active"


# next molecule below
In: So what was the verdict on O=[N+]([O-])c1cc2ccc3cccc4ccc(c1O)c2c34 in this test?
Out: active

These entries and their values trace back to PubChem BioAssay AID1259407.
